Consider the following compounds; for each one, report its GI50.
- Test system: U-251
- test-name: NCI tumour cell line growth inhibition, 48 h
The source made the active and inactive calls. No stated cut-off is given here; in the data, active = GI50 up to about 1.1 µM and inactive = higher.

Query block: Value lookup for GI50; key = CN(C)CCNC(=O)c1ccc(NCCCN(C)CCCNc2ccc(C(=O)NCCN(C)C)c3nc4ccc([N+](=O)[O-])cc4c(O)c23)c2c(O)c3cc([N+](=O)[O-])ccc3nc12
Result block: < 0.01 µM (active)

Query block: Value lookup for GI50; key = CC(=O)N1c2ccccc2C(C)(C)OC1C(Cl)(Cl)Cl (stereo not given)
Result block: 33.3 µM (inactive)

Query block: Value lookup for GI50; key = CC(=O)C(=Cc1ccc(C=C(C(C)=O)C(C)=O)cc1)C(C)=O
Result block: 1.79 µM (inactive)

Query block: Value lookup for GI50; key = O=Cc1cccc2c1Oc1c(cccc1C(=O)O)S2
Result block: 62.7 µM (inactive)

Query block: Value lookup for GI50; key = CCC(c1nc2ccccc2c(=O)n1NC(=O)C(C)(C)C)C1(O)CCCCC1 (stereo not given)
Result block: > 100 µM (inactive)

Query block: Value lookup for GI50; key = COc1ccc(/C=N/NS(=O)(=O)c2ccccc2)cc1
Result block: > 100 µM (inactive)

Query block: Value lookup for GI50; key = Cc1nc2cccc(F)c2c(=O)n1-c1nnc(C(F)(F)F)s1
Result block: > 10 µM (inactive)

Query block: Value lookup for GI50; key = S=C(N/N=C(/c1ccccc1)c1ccccn1)Nc1ccccc1Cl
Result block: 0.0158 µM (active)

Query block: Value lookup for GI50; key = S=C1CSc2c(ccc3ccccc23)N1
Result block: > 100 µM (inactive)

Query block: Value lookup for GI50; key = COc1ccc(C2C3=C(CCCC3=O)N(c3ccccc3)C3=C2C(=O)CCC3)cc1
Result block: 75.7 µM (inactive)

====

- Tested on: ACHN
- test-name: NCI tumour cell line growth inhibition, 48 h
Activity calls are given as the source filed them. Rule as the data show it: active = GI50 up to about 1.1 µM and inactive = higher.
reported-endpoint: GI50

Query block: Value lookup for GI50; key = COC(=O)C(C(=O)C(=O)Nc1ccc(N)cc1[N+](=O)[O-])c1nc2ccc(Cl)cc2nc1O (stereo unspecified)
Result block: > 100 µM (inactive)

Query block: Value lookup for GI50; key = O=C(N/N=C\c1cccs1)c1ccncc1
Result block: > 100 µM (inactive)

Query block: Value lookup for GI50; key = CC1(C)OCC2OC3([C@H]4OC(C)(C)O[C@@H]4CO)OC(C)(C)OC3C2O1 (stereo partly specified)
Result block: > 100 µM (inactive)

Query block: Value lookup for GI50; key = CCN(c1ccc(Br)cc1)c1c(Br)c(=O)nc2ccccn12
Result block: > 100 µM (inactive)

Query block: Value lookup for GI50; key = O=S(=O)(N=[Se](=O)(c1ccccc1)c1ccccc1)c1ccccc1
Result block: > 100 µM (inactive)

Query block: Value lookup for GI50; key = NNC(=O)Cc1cccnc1
Result block: > 100 µM (inactive)

====

- Tested on: RXF 393
- test-name: NCI tumour cell line growth inhibition, 48 h
Active and inactive are the calls of the source. Rule as the data show it: active = GI50 up to about 1.1 µM and inactive = higher.
reported-endpoint: GI50

Query block: Value lookup for GI50; key = CC(C)N(C(=O)C12C3C4C5(C#N)C3C1(C#N)C5C42I)C(C)C (stereo unspecified)
Result block: > 100 µM (inactive)

Query block: Value lookup for GI50; key = COc1ccc2oc(=N)c(C(=O)Nc3ccccc3)cc2c1
Result block: 17.3 µM (inactive)

Query block: Value lookup for GI50; key = Cc1c2c(C(N)=O)nccc2c(C)c2c1c1ccccc1n2Cc1ccccc1
Result block: 11.9 µM (inactive)

Query block: Value lookup for GI50; key = C[C@]12CC[C@H](O)CC1=CC[C@@H]1[C@@H]2CC[C@]2(C)c3nc(Cl)ccc3C[C@@H]12
Result block: 37.9 µM (inactive)

Query block: Value lookup for GI50; key = Cc1ccc(S(=O)(=O)NC(=O)NCC(=O)O)cc1
Result block: > 100 µM (inactive)

Query block: Value lookup for GI50; key = CS(=O)(=O)N(N(CCCl)S(=O)(=O)c1ccccc1)S(C)(=O)=O
Result block: > 100 µM (inactive)

====

- System: K562
- test-name: NCI tumour cell line growth inhibition, 48 h
Calls of active or inactive are those of the source. Rule as the data show it: active = GI50 up to about 1.1 µM and inactive = higher.
reported-endpoint: GI50

Query block: Value lookup for GI50; key = C=CCONC(=O)c1ccc(Cl)cc1
Result block: > 100 µM (inactive)

Query block: Value lookup for GI50; key = COC(=O)c1sc2c(c1C(=O)OC)/C(=N/C(C)(C)C)S/C2=N\C(C)(C)C
Result block: 18.5 µM (inactive)

Query block: Value lookup for GI50; key = O=c1[nH]c(=O)n(COCc2ccccc2)c2ccsc12
Result block: 59 µM (inactive)

Query block: Value lookup for GI50; key = NNC(=O)CNC(=O)CSc1nnc(COc2ccc(Cl)cc2)n1-c1ccccc1
Result block: > 100 µM (inactive)

Query block: Value lookup for GI50; key = CCC1C(=O)OCc2c1cc1n(c2=O)Cc2ccccc2-1 (stereo not given)
Result block: > 100 µM (inactive)

Query block: Value lookup for GI50; key = COC(=O)c1cc(Br)c(C(=O)C(Cl)(Cl)Cl)[nH]1
Result block: > 100 µM (inactive)

Query block: Value lookup for GI50; key = O=C(c1cccc(C(=O)c2ccc3c4c(cccc24)C(=O)N(c2ccccc2)C3=O)c1)c1ccc2c3c(cccc13)C(=O)N(c1ccccc1)C2=O
Result block: > 100 µM (inactive)

Query block: Value lookup for GI50; key = Cc1cccc2c1CC1(Cc3ccccc3C1=O)C2=O (stereo not given)
Result block: > 100 µM (inactive)

Query block: Value lookup for GI50; key = CC1=C(/C=C/C(C)=C/C=C/C(C)=C/CO)C(C)(C)CCC1
Result block: 26.5 µM (inactive)

Query block: Value lookup for GI50; key = C[C@]12CC[C@H]3[C@@H](CCC4=CC(=O)CC[C@@H]43)[C@@H]1CC[C@@H]2OC1(O)C(=O)c2ccccc2C1=O
Result block: 35.3 µM (inactive)

Query block: Value lookup for GI50; key = C=CCC1(C#N)C(=S)NC2=C(C(=O)CC(C)(C)C2)C1c1ccccc1 (stereo not given)
Result block: 82.2 µM (inactive)

Query block: Value lookup for GI50; key = O=C1OC2(OC2c2ccccc2)c2ccccc21 (stereo not given)
Result block: > 100 µM (inactive)

Query block: Value lookup for GI50; key = COC(=O)c1nc(-c2nc(CCNC(=O)OC(C)(C)C)sc2Cl)sc1Cl
Result block: 36.7 µM (inactive)

Query block: Value lookup for GI50; key = CN(C)CCNC(=O)c1ccc(NCCCN(C)CCCNc2ccc(C(=O)NCCN(C)C)c3nc4ccc([N+](=O)[O-])cc4c(O)c23)c2c(O)c3cc([N+](=O)[O-])ccc3nc12
Result block: 0.0135 µM (active)

Query block: Value lookup for GI50; key = O=c1[nH]c2nc[nH]c2c(=O)n1C1CCCCC1
Result block: > 100 µM (inactive)

Query block: Value lookup for GI50; key = CC(C)(C)NC1=NC(C(F)(F)F)(C(F)(F)F)NC(=O)N1
Result block: 30.7 µM (inactive)

Query block: Value lookup for GI50; key = O=C(CC1Sc2ccccc2NC1=O)Nc1cc(Cl)ccc1Cl (stereo not given)
Result block: > 100 µM (inactive)

Query block: Value lookup for GI50; key = CC(C)(C)N/N=C(\C(=O)Nc1nnc(S)[nH]1)C1C(=O)Nc2ccccc2[S+]1[O-] (stereo not given)
Result block: > 100 µM (inactive)

Query block: Value lookup for GI50; key = Cc1cc(C)c2c(=N)c3ccccc3n(CCCCCCn3c4ccccc4c(=N)c4c(C)cc(C)nc43)c2n1
Result block: 0.3 µM (active)

Query block: Value lookup for GI50; key = CC1OC(OC2CC(O)(C(=O)CO)Cc3c(O)c4c(c(O)c32)C(=O)c2ccccc2C4=O)CC(N)C1O (stereo not given)
Result block: < 0.0118 µM (active)

====

- Tested on: RXF 631
- test-name: NCI tumour cell line growth inhibition, 48 h
Activity calls are given as the source filed them. No stated cut-off is given here; in the data, active = GI50 up to about 1.1 µM and inactive = higher.
reported-endpoint: GI50

Query block: Value lookup for GI50; key = O=C(c1cc2c(C(F)(F)F)onc2c2ccccc12)C(F)(F)F
Result block: 2.38 µM (inactive)

Query block: Value lookup for GI50; key = COC(=O)[C@]12CC=C3O[C@@H]4OC5(CCCCC5)O[C@@H]4C3[C@@H]1C(=O)CCC2=O (some centres undefined)
Result block: > 100 µM (inactive)

Query block: Value lookup for GI50; key = CS(=O)(=O)N(N(CCCl)S(=O)(=O)c1ccccc1)S(C)(=O)=O
Result block: > 100 µM (inactive)

Query block: Value lookup for GI50; key = O=C(CC1OC(O)C(Cl)=C1Cl)c1cccnc1 (centres undefined)
Result block: > 100 µM (inactive)

Query block: Value lookup for GI50; key = C/C(=C\C(C)COCc1ccccc1)[C@H](COCc1ccccc1)OCc1ccccc1 (some centres undefined)
Result block: > 100 µM (inactive)

Query block: Value lookup for GI50; key = C[C@]12CCc3nonc3C1CC[C@@H]1C2CC[C@]2(C)NC(=O)CCC12 (some centres undefined)
Result block: > 100 µM (inactive)

Query block: Value lookup for GI50; key = Cc1cc(/N=C2\C=C(Nc3cc(C)on3)C(=O)c3ccccc32)no1
Result block: 28.8 µM (inactive)

Query block: Value lookup for GI50; key = CC(C)(C)N/N=C(\C(=O)Nc1nnc(S)[nH]1)C1C(=O)Nc2ccccc2[S+]1[O-] (centres undefined)
Result block: > 100 µM (inactive)

Query block: Value lookup for GI50; key = CN(C)C(=S)/N=c1\sn(C)/c(=N\C(=S)N(C)C)n1C
Result block: > 100 µM (inactive)

Query block: Value lookup for GI50; key = Nc1ccc(C(c2ccccc2)(c2ccccc2)c2ccccc2)cc1
Result block: 47 µM (inactive)

Query block: Value lookup for GI50; key = CC1OC(OC2CC(O)(C(=O)CO)Cc3c(O)c4c(c(O)c32)C(=O)c2ccccc2C4=O)CC(N)C1O (centres undefined)
Result block: 0.0102 µM (active)

Query block: Value lookup for GI50; key = CCC1C(=O)OCc2c1cc1n(c2=O)Cc2ccccc2-1 (centres undefined)
Result block: > 100 µM (inactive)

Query block: Value lookup for GI50; key = O=C(O)CCCNS(=O)(=O)c1ccc2ccccc2c1
Result block: > 100 µM (inactive)

Query block: Value lookup for GI50; key = CCc1cccc(C)c1NC(=O)C1=C(C)NC(C)=C(C(=O)Nc2c(C)cccc2CC)C1c1ccc2c(c1)OCO2
Result block: 20 µM (inactive)
